assayed.target: MAL^TIR (Homo sapiens)
Construct: MAL (residues 79–221); 6xHis; made in house; host or cells: E. coli BL21 (DE3)
method.notes: T‐Surf phage library (P8 and P3) selection against MAL^TIR, four rounds, NGS read counts
Format: binding
applied.conditions: P3 library, selection against MAL TIR; rank by count before grouping
measured.metric: P3_MAL Rank (before)

Req: Enter measured P3_MAL Rank (before), system MAL^TIR (Homo sapiens), for the sequence shown: `YAFTDHLHRYVVQRGV`
Resp: 1463

Req: Enter measured P3_MAL Rank (before), system MAL^TIR (Homo sapiens), for the sequence shown: `KRFWERLRYMLPHSSL`
Resp: 3466

Req: Enter measured P3_MAL Rank (before), system MAL^TIR (Homo sapiens), for the sequence shown: `YTALTNSGFHTFLDNE`
Resp: 1547

Req: Enter measured P3_MAL Rank (before), system MAL^TIR (Homo sapiens), for the sequence shown: `VEPTQVRKQSGSVKNA`
Resp: 1663

Req: Enter measured P3_MAL Rank (before), system MAL^TIR (Homo sapiens), for the sequence shown: `KIILDTAARIWGWRQA`
Resp: 3704

Req: Enter measured P3_MAL Rank (before), system MAL^TIR (Homo sapiens), for the sequence shown: `YAFTGHVDRYLVQRGV`
Resp: 1360

Req: Enter measured P3_MAL Rank (before), system MAL^TIR (Homo sapiens), for the sequence shown: `SSFREGLLRLLELRKK`
Resp: 3138

Req: Enter measured P3_MAL Rank (before), system MAL^TIR (Homo sapiens), for the sequence shown: `RLLNGKKRCISFIAG`
Resp: 2475

A. YAFTGHLQRYLVHRGV
B. PNLRPQVLNYLIRTKT
Req: Hey, between A and B which has a smaller measured P3_MAL Rank (before)? Kindly give the label for the entry you pick.
Resp: A

A. FLNWPRNPKEHRHFWH
B. LKVESCVRRWKKRAN
Req: Task for the reader: decide whether A or B has the larger P3_MAL Rank (before). Kindly give the label for the entry you pick.
Resp: B

* * *

assayed.target: MyD88^TIR (Homo sapiens)
Construct: MyD88 (residues 148–296); 6xHis; made in house; host or cells: E. coli BL21 (DE3)
method.notes: T‐Surf phage library (P8 and P3) selection against MyD88^TIR, four rounds, NGS read counts
Type: binding
applied.conditions: P3_MyD88: rank by count before grouping
measured.metric: Rank (before)

Req: Fill in Rank (before) for record `AVEKETDKIQTPPKNA`
Resp: 1939

Req: Fill in Rank (before) for record `SSFREGLWRLLELSET`
Resp: 1199

Req: Fill in Rank (before) for record `KMQKWKDALYEAPNL`
Resp: 1321

Req: Fill in Rank (before) for record `LVAHEITPSLFKAIKE`
Resp: 676

Req: Fill in Rank (before) for record `SSVRGGRWGLVELGKK`
Resp: 3269

1. YLKWGYPWFWDRLRYAM
2. NERVHVWSSKAKSLVG
3. SDLRVVEDGSVSPLEM
4. DQHRDLPRGKAIKPEILG
5. LSRVPSVHDFRGFATI
Req: hey, can you rank those sequences up there by Rank (before)? biggest number first please Reply: labels, ordered per the request.
Resp: 2, 4, 3, 5, 1

* * *

assayed.target: MyD88^TIR (Homo sapiens, UniProt Q99836)
Construct: MyD88 (residues 148–296); 6xHis; made in house; host or cells: E. coli BL21 (DE3)
Sequence (Q99836 148-296): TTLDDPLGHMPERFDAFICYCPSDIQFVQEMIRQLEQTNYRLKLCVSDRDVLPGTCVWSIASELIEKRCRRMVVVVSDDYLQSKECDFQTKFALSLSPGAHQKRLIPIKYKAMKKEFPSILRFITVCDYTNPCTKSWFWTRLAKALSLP
method.notes: T‐Surf phage library (P8 and P3) selection against MyD88^TIR, four rounds, NGS read counts
Format: binding
applied.conditions: P3_MyD88 pool: P3 T-Surf phage library, 4th round of selection against MyD88 TIR, share of NGS reads
measured.metric: Population (%)

Req: Fill in Population for record `DHHLDLPRGKAIKPVILG`
Resp: 0.00291

A. SSFREGLWRLL*LSKK
B. KNLLNELVSKNIRTFM
Req: Task for the reader: decide whether A or B has the larger Population. Kindly give the label for the entry you pick.
Resp: B
(B: 0.00466%, A: 0.00291%)

* * *

assayed.target: MyD88^TIR (Homo sapiens, UniProt Q99836)
Construct: MyD88 (residues 148–296); 6xHis; made in house; host or cells: E. coli BL21 (DE3)
method.notes: T‐Surf phage library (P8 and P3) selection against MyD88^TIR, four rounds, NGS read counts
Format: binding
applied.conditions: P8_MyD88: rank by NGS read count before grouping
measured.metric: Rank (before)

Previously resolved entries follow.
Req: Fill in Rank (before) for record `WALDELLQILHPRELV`
Resp: 1460

Req: Fill in Rank (before) for record `DSQVLDWFYERLVSLL`
Resp: 2496

Req: Fill in Rank (before) for record `GLSWVRMNGGWACMM`
Resp: 2287

Req: Fill in Rank (before) for record `LGYQLIDWEYFVGIEN`
Resp: 3319

Req: Fill in Rank (before) for record `DPHDLQWLYERLVSLI`
Resp: 2634

A. PQEREWFYERLVSLIL
B. YASSSWYLAELVHMPW
Req: Task for the reader: decide whether A or B has the larger Rank (before). Kindly give the label for the entry you pick.
Resp: A
(A: 3499, B: 1854)

* * *

assayed.target: MyD88^TIR (Homo sapiens, UniProt Q99836)
Construct: MyD88 (residues 148–296); 6xHis; made in house; host or cells: E. coli BL21 (DE3)
method.notes: T‐Surf phage library (P8 and P3) selection against MyD88^TIR, four rounds, NGS read counts
Type: binding
applied.conditions: P3_MyD88: rank by count before grouping
measured.metric: Rank (before)

Req: Fill in Rank (before) for record `DIQRSRFKDDADLVGQ`
Resp: 2068

Req: Fill in Rank (before) for record `KARQFGALREEKLRAA`
Resp: 3599

Req: Fill in Rank (before) for record `AVGKETNKIQTPLKNA`
Resp: 1886

Req: Fill in Rank (before) for record `AVVRETQKIQPQRKNA`
Resp: 1885

a. KNLLNELVSKTIRTFM
b. SSFREGLWRLPELLR
c. YAFTGHFQRYLVQRGV
d. SENYATSPWALKERLP
e. LNVEGWRQALEKAGKL
Req: Please put the entries in order of rising Rank (before). Reply: labels, ordered per the request.
Resp: b, d, c, e, a
(b: 402, d: 734, c: 1485, e: 2401, a: 3790)

* * *

assayed.target: MAL^TIR (Homo sapiens, UniProt P58753)
Construct: MAL (residues 79–221); 6xHis; made in house; host or cells: E. coli BL21 (DE3)
Sequence (P58753 79-221): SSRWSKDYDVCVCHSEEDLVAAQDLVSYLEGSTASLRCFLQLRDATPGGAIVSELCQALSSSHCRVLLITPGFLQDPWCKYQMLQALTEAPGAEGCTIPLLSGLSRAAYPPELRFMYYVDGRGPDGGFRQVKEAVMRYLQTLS
method.notes: T‐Surf phage library (P8 and P3) selection against MAL^TIR, four rounds, NGS read counts
Format: binding
applied.conditions: P3 library, selection against MAL TIR; rank by count before grouping
Method: T‐Surf libraries were screened against the immobilized TIR domains of two major human TLR adaptor proteins, MAL^TIR and MyD88^TIR, allowing cross‐species selection of TIR‐binding motifs with 190 946 TIR‐derived peptides in a single binding assay (Scheme 1). Enriched phage pools from the fourth round of selection were analyzed using NGS after barcoding the peptide‐coding regions of the phage pools. […]
measured.metric: P3_MAL Rank (before)

P. EWIREQLRRSSQSIAN
Q. SSFCEGLWRLLELSTK
R. YQWRNALTAAANLRGW
Req: Order by P3_MAL Rank (before), ascending. Reply: labels, ordered per the request.
Resp: P, R, Q
(P: 801, R: 1525, Q: 3122)

a. HQAFTGHLHRYLVQRGV
b. PNLRTKVLAYLNRTKT
Req: Hey, between a and b which has a smaller measured P3_MAL Rank (before)? Kindly give the label for the entry you pick.
Resp: a

* * *

assayed.target: MAL^TIR (Homo sapiens)
Construct: MAL (residues 79–221); 6xHis; made in house; host or cells: E. coli BL21 (DE3)
method.notes: T‐Surf phage library (P8 and P3) selection against MAL^TIR, four rounds, NGS read counts
Type: binding
applied.conditions: P3 library, 4R selection against MAL, rank after grouping
measured.metric: P3_MAL Rank (after)

Req: Fill in P3_MAL Rank (after) for record `SSFSEGLWRRLELSKK`
Resp: 594

Req: Fill in P3_MAL Rank (after) for record `CFLQNLCYALTYRPAT`
Resp: 637

Req: Fill in P3_MAL Rank (after) for record `TSHLHHAMRLNKIDTF`
Resp: 633

Req: Fill in P3_MAL Rank (after) for record `LHNNRILVLITLPTNV`
Resp: 671

Req: Fill in P3_MAL Rank (after) for record `SSFREGLWRLRELGKK`
Resp: 622

Req: Fill in P3_MAL Rank (after) for record `RGYLRHVRHHLQAKDH`
Resp: 657

Req: Fill in P3_MAL Rank (after) for record `RNFAGQLAGLTLQNGDEGK`
Resp: 607

Req: Fill in P3_MAL Rank (after) for record `PSEIRKQTGSLPKAFA`
Resp: 579

Req: Fill in P3_MAL Rank (after) for record `CRFRQGLWRLLELSKK`
Resp: 611

Req: Fill in P3_MAL Rank (after) for record `YAFTSHLYDRLQRSGI`
Resp: 606

Req: Fill in P3_MAL Rank (after) for record `SLLKYKEALPQFHSWL`
Resp: 586

Req: Fill in P3_MAL Rank (after) for record `PNLRTKVMNYLIRTKP`
Resp: 643

Req: Fill in P3_MAL Rank (after) for record `SAFVAPLSEALNQRAL`
Resp: 675

Req: Fill in P3_MAL Rank (after) for record `SSFREGLWRLMELSNK`
Resp: 593

Req: Fill in P3_MAL Rank (after) for record `MERVKAFHQRLKTALGH`
Resp: 587

Req: Fill in P3_MAL Rank (after) for record `KTLAGLRCDHLFRLRL`
Resp: 639

Req: Fill in P3_MAL Rank (after) for record `NQWRNALTATANLSGL`
Resp: 604

Req: Fill in P3_MAL Rank (after) for record `RGFLSHLRHPVHPKDH`
Resp: 615
